Origin of the recorded values: patent US20140303082A1

Target: AT2R-F272H (Homo sapiens, UniProt P50052, F272H)
Construct: expressed in transfected cells; host or cells: HEK293T, transient, crude membranes
Sequence (P50052 whole entry F272H): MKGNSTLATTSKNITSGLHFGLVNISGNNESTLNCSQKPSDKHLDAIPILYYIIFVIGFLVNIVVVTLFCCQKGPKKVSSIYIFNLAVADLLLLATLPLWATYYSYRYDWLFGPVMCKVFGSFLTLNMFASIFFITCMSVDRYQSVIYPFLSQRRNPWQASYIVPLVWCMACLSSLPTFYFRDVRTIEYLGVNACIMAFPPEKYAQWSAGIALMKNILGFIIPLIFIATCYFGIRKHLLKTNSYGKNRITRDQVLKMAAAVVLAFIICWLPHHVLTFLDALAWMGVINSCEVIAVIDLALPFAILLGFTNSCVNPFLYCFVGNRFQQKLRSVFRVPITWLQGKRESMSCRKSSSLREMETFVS
Assay: Radioligand binding assays, AT2R mutant
Details: competition vs 2 nM [125I]-AII, 2 hours on ice, Cheng and Prusoff
Where no end group is shown, it is not given here.
observedProperty: pKi
Recall that pKi is obtained by taking minus log10 of the concentration measured in molar.

[Q] Entry DRVYIYPF [[Y]^6-AII] has what pKi?
[A] 7.80

====

Molecular target: AT2R-F272A (Homo sapiens, UniProt P50052, F272A)
Construct: expressed in transfected cells; host or cells: HEK293T, transient, crude membranes
Sequence (P50052 whole entry F272A): as the sequence (P50052 whole entry F272H) above, with H272A counted along it
Assay: Radioligand binding assays, AT2R mutant
Details: competition vs 2 nM [125I]-AII, 2 hours on ice, Cheng and Prusoff
Where no end group is shown, it is not given here.
observedProperty: Ki

[Q] Entry DRVYIYPF [[Y]^6-AII] has what Ki?
[A] 16 nM

====

Target: AT2R-Y189A (Homo sapiens, UniProt P50052, Y189A)
Construct: expressed in transfected cells; host or cells: HEK293T, transient, crude membranes
Sequence (P50052 whole entry Y189A): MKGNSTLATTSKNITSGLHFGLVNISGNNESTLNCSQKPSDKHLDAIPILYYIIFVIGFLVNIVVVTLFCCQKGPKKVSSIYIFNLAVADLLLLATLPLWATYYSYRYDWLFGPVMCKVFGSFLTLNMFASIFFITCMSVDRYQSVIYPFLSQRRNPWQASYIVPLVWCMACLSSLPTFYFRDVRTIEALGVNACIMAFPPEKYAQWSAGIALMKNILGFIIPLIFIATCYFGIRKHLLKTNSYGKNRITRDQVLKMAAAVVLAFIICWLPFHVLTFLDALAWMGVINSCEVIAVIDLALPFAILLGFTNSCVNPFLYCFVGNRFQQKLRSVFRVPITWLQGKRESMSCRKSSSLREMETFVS
Assay: Radioligand binding assays, AT2R mutant
Settings: competition vs 2 nM [125I]-AII, 2 hours on ice, Cheng and Prusoff
Where no end group is shown, it is not given here.
observedProperty: Ki (nM)
Just the number in nM, nothing appended.

[Q] Entry DRVYIYPF [[Y]^6-AII] has what Ki?
[A] 12

====

Biological target: AT2R-Y189N (Homo sapiens, UniProt P50052, Y189N)
Construct: expressed in transfected cells; host or cells: HEK293T, transient, crude membranes
Sequence (P50052 whole entry Y189N): as the sequence (P50052 whole entry F272H) above, with Y189N, H272F counted along it
Assay: Radioligand binding assays, AT2R mutant
Conditions: competition vs 2 nM [125I]-AII, 2 hours on ice, Cheng and Prusoff
Where no end group is shown, it is not given here.
observedProperty: pKi
Recall that pKi is obtained by taking minus log10 of the concentration measured in molar.

[Q] Entry DRVYIYPF [[Y]^6-AII] has what pKi?
[A] 8.00
